assay: gradient 5% acetonitrile 3 min, to 50% in 2 min, to 85% in 15 min, held 3 min, 100 µL/min; conditions: column: Zorbax Extend-C18 2.1 x 50 mm; eluents: water / acetonitrile, 0.1% formic acid
Readout Kind: RP-LC retention time (s)

Would you please look over these solved cases?
>  <Compound>
COc1ccccc1-c1noc(C2CCCN2C(=O)Nc2ccc(F)cc2)n1 (centres undefined)

>  <RP-LC retention time / s>
842

$$$$
>  <Compound>
Cc1cc(C)n(-c2ccnc(N3CCc4ccccc43)n2)n1

>  <RP-LC retention time / s>
1340

$$$$
>  <Compound>
Cc1cccc(CNC(=O)c2nnc(-c3ccc(S(=O)(=O)N(C)C)cc3)o2)c1

>  <RP-LC retention time / s>
894

$$$$
>  <Compound>
CCCNS(=O)(=O)c1cc(-c2[nH]ncc2C(=O)N(C)C)oc1C

>  <RP-LC retention time / s>
608

$$$$
>  <Compound>
COc1ccc(NC(=O)Cn2nc(C(=O)N3CCCC3)c3ccccc32)c(OC)c1

>  <RP-LC retention time / s>
822

$$$$
>  <Compound>
Cc1cc(C)c(C)c(S(=O)(=O)NCC(=O)NCC2CCCO2)c1C (centres undefined)

>  <RP-LC retention time / s>
724

$$$$
>  <Compound>
Cc1ccc(-c2cc(C(=O)O)c3ccccc3n2)c(C)c1

>  <RP-LC retention time / s>
821

$$$$

a: Cn1ccc(C(=O)Nc2ccc(S(C)(=O)=O)cc2)n1
b: Cc1ccc(-c2noc(Cn3c(=O)n(Cc4ccccc4)c(=O)c4sccc43)n2)cc1C
For the pair a and b , which member has the lower RP-LC retention time number? Answer by quoting the chosen item's label.
a

----------
experiment: gradient 5% acetonitrile 3 min, to 50% in 2 min, to 85% in 15 min, held 3 min, 100 µL/min; settings: column: Zorbax Extend-C18 2.1 x 50 mm; eluents: water / acetonitrile, 0.1% formic acid
Readout Kind: RP-LC retention time (s)

>  <Molecule Smiles>
Cc1c(C)c2cc3c(=O)ccoc3c(C)c2oc1=O

>  <RP-LC retention time / s>
780

$$$$
>  <Molecule Smiles>
c1cc2nncn2nc1NC1CCCCC1

>  <RP-LC retention time / s>
790

$$$$
>  <Molecule Smiles>
Cc1cc(C)cc(Nc2nc3ccncc3n(Cc3ccccc3)c2=O)c1

>  <RP-LC retention time / s>
817

$$$$

----------
assay: gradient 5% acetonitrile 3 min, to 50% in 2 min, to 85% in 15 min, held 3 min, 100 µL/min; conditions: column: Zorbax Extend-C18 2.1 x 50 mm; eluents: water / acetonitrile, 0.1% formic acid
Readout Kind: RP-LC retention time (s)

>  <Molecule>
Cc1cc(N2CCN(C(=O)CCCc3c[nH]c4ccccc34)CC2)nc2ccccc12

>  <RP-LC retention time (s)>
696

$$$$
>  <Molecule>
CCOc1ccccc1NC(=O)N1CCC2(C1)C(=O)Nc1ccc(OC)cc12 (stereo not given)

>  <RP-LC retention time (s)>
810

$$$$
>  <Molecule>
COC(=O)c1ccccc1NC(=O)CSc1cc(C)nc(-c2cccnc2)n1

>  <RP-LC retention time (s)>
734

$$$$
>  <Molecule>
COC(=O)C1=CN(c2ccccc2C)c2cc(F)ccc2S1(=O)=O

>  <RP-LC retention time (s)>
832

$$$$
>  <Molecule>
CCOC(=O)c1nc(Nc2ccc(CC)cc2)c2ccccc2n1

>  <RP-LC retention time (s)>
932

$$$$
>  <Molecule>
CC1=C(c2ccc(C)c(C)c2)S(=O)(=O)N=C1N1CCCN(C(=O)c2ccsc2)CC1

>  <RP-LC retention time (s)>
858

$$$$
>  <Molecule>
Cc1ccc(NC(=O)C(=O)c2ccc[nH]2)c(Br)c1

>  <RP-LC retention time (s)>
1060

$$$$
>  <Molecule>
Cn1c(NC(=O)c2cccc([N+](=O)[O-])c2)c(-c2cccs2)c(=O)c2ccccc21

>  <RP-LC retention time (s)>
701

$$$$

I: COc1cc(C(=O)N2CCCC(C)(C(=O)NCc3ccc(C)cc3)C2)cc(OC)c1OC (stereo not given)
II: O=S(=O)(c1ccc(-c2noc(-c3cccc(Br)c3)n2)cc1)N1CCOCC1
For the pair I and II , which member has the lower RP-LC retention time number? Answer by quoting the chosen item's label.
I
(I: 820 s, II: 1190 s)
